- PROTOCOL_TEXT: protein stability index of a GFP-peptide fusion (yeast GPS) (PSI 1-4); higher = more stable; sorted into four equal gates, so the index is relative within each strain
- SETTINGS: ubr1∆
OBSERVED_PROPERTY: protein stability index

> print(dat)
                      polymer.sequence  observed.value
 1            KINQERLERRINLTKVT [CSI1]            1.37
 2    NINAKMETRINILLRER [YIL149C/MLP2]            3.15
 3            KVAHTSYKRIYGEYPPT [PRE8]            3.09
 4            ESIDVDMDAESNESQNG [SMC3]            3.27
 5   DGIFSSKTDNIEDPNLS [YMR153W/NUP53]            2.55
 6   CLEACSFILSSLEDPQV [YDL116W/NUP84]            2.75
 7            GAIAYNQFKRIDTLLYL [RET1]            1.54
 8            LVSVVEAFIASGITDPY [FAS2]            1.85
 9           EEREAAASKVKLEEESK [RPC53]            3.25
10          RNEKIAVHVTVRGPKAE [RPL11A]            2.62
11    QHIKVFKLDKDTSNWEL [YGL100W/SEH1]            3.62
12           KKKQQGAKQTQGGAMNK [SRP72]            3.58
13           QAQAQAHAQHQPSQQPQ [GAL11]            3.03
14           KGYLQRGDDGESYAYLA [CDC53]            3.25
15            DYSKPNLPPHYALFLKA [SSN2]            1.99
16            PFQLDVADMLTPEYAAE [UBP6]            2.77
17            FDISMADLSSSEEEEDE [SSN2]            2.45
18            DLISKKTKTSLLPTIKR [RPR2]            2.74
19            EPIEESSQNNSELAPIE [IRR1]            2.73
20           EEAKEEVTEEQAEATEW [RPS0A]            3.64
21   NTAPGLGNTVSTQPSFA [YGR119C/NUP57]            3.04
22  KEKWPSLELQSFQKIPL [YML103C/NUP188]            2.73
23            TANAKHTSSNSREIAQP [SMB1]            3.33
24            DEVITEGQADIDMESDV [POP7]            3.22
25            LFEQIGIRIKGKIVGFD [SME1]            1.89
26   PQKSSSKGFVFNSVQKK [YAR002W/NUP60]            1.18
27            KQEIMMSDLFTFDWFIK [ISW2]             2.9
28            YTEQFQHYKNNSISSQP [SSN2]            2.98
29            ESLTFNEFQLQWGKYQT [SWI1]            2.91
30           AELRPLQFKSIREIDVA [RPS7A]            1.43
